The values you see were collected from patent US20070254055A1.

Tested on: human aortic smooth muscle cells (HSMC)
Experiment: FBS-induced [3H] thymidine incorporation in HSMC
Format: cell-based
Conditions: [3H] thymidine incorporation and cell number counting; read-out: IC50, serum-induced HASMC proliferation
Description: Synthetic Av-C was used in this experiment. […] The inhibitory effect of Avenanthramide was concentration-dependent.
readoutType: IC50

What does the data say about its IC50? Entry: O=C(/C=C/c1ccc(O)c(O)c1)Nc1ccc(O)cc1C(=O)O [Avn-C, Avenanthramide C]
~50 µM
